system: Trichophyton rubrum; assay: Antimicrobial activity against Trichophyton rubrum MTCC 296 assessed as diameter of growth inhibition zone at 100 ug/ml after 48-96 hr by agar cup diffusion method; assay type: functional; conditions: read-out: DIZ
Give measured zone of inhibition at 100 µg/mL for each item. Keep answers brief.
State the value with its unit after it.

// query Which zone of inhibition at 100 µg/mL reading was recorded for the compound "O=C(/C=C/c1ccccc1)C1C(=O)NC(=S)NC1=O" ?
// result 24 mm

// query Given the compound "COc1ccc(/C=C/C(=O)C2C(=O)NC(=S)NC2=O)cc1OC" , what is its reported zone of inhibition at 100 µg/mL?
// result 23 mm

// query Which zone of inhibition at 100 µg/mL reading was recorded for the compound "COc1ccc(/C=C/C(=O)C2C(=O)NC(=S)NC2=O)cc1" ?
// result 21 mm

// query Recorded zone of inhibition at 100 µg/mL for "O=C(/C=C/c1ccc(O)cc1)C1C(=O)NC(=S)NC1=O" , please?
// result 24 mm

// query Which measured zone of inhibition at 100 µg/mL value corresponds to "O=C(/C=C/c1ccc2ccccc2c1)C1C(=O)NC(=S)NC1=O" ?
// result 22 mm

// query Look up zone of inhibition at 100 µg/mL for this compound: "O=C(/C=C/c1ccc([N+](=O)[O-])cc1)C1C(=O)NC(=S)NC1=O"
// result 23 mm

// query Can you look up the measured zone of inhibition at 100 µg/mL of "O=C(/C=C/c1ccccc1O)C1C(=O)NC(=S)NC1=O" for me?
// result 21 mm

// query Can you share its zone of inhibition at 100 µg/mL? I mean this compound: "O=C(/C=C/c1cccc([N+](=O)[O-])c1)C1C(=O)NC(=S)NC1=O"
// result 22 mm

// query Item "O=C(/C=C/c1ccc(Cl)cc1)C1C(=O)NC(=S)NC1=O" has what recorded zone of inhibition at 100 µg/mL?
// result 21 mm

// query What value of zone of inhibition at 100 µg/mL has been recorded for this entry: "Cc1ccc(/C=C/C(=O)C2C(=O)NC(=S)NC2=O)cc1"
// result 22 mm

// query Sample "O=C(/C=C/c1ccccc1Cl)C1C(=O)NC(=S)NC1=O" — what was its zone of inhibition at 100 µg/mL?
// result 19 mm

---

Field: zone of inhibition at 250 µg/mL. Provide a value for each of the compounds that follow.
system: Escherichia coli; assay: Antimicrobial activity against Escherichia coli MTCC 443 assessed as diameter of growth inhibition zone at 250 ug/ml after 18-24 hr by agar cup diffusion method; type: functional; conditions: read-out: DIZ
Report as a plain number; the unit mm is understood.

// query Looking for the measured zone of inhibition at 250 µg/mL of "O=C(/C=C/c1ccc([N+](=O)[O-])cc1)C1C(=O)NC(=S)NC1=O" , can you help?
// result 23

// query Value lookup for zone of inhibition at 250 µg/mL; key = "O=C(/C=C/c1ccc(Cl)cc1)C1C(=O)NC(=S)NC1=O"
// result 19

// query Endpoint output: zone of inhibition at 250 µg/mL of "Cc1ccc(/C=C/C(=O)C2C(=O)NC(=S)NC2=O)cc1" . Value?
// result 19

// query Find the recorded zone of inhibition at 250 µg/mL belonging to "O=C(/C=C/c1ccccc1)C1C(=O)NC(=S)NC1=O" and report it.
// result 17

// query I would be grateful if you could share the reported zone of inhibition at 250 µg/mL for "COc1ccc(/C=C/C(=O)C2C(=O)NC(=S)NC2=O)cc1OC" .
// result 21

// query Can you share its zone of inhibition at 250 µg/mL? I mean this compound: "O=C(/C=C/c1ccccc1O)C1C(=O)NC(=S)NC1=O"
// result 17

// query So what does the record say about zone of inhibition at 250 µg/mL for "COc1ccc(/C=C/C(=O)C2C(=O)NC(=S)NC2=O)cc1" ?
// result 21

// query Which value of zone of inhibition at 250 µg/mL has been reported for "O=C(/C=C/c1ccc(O)cc1)C1C(=O)NC(=S)NC1=O" in the records?
// result 17

// query What value of zone of inhibition at 250 µg/mL has been reported for the following compound? "O=C(/C=C/c1cccc([N+](=O)[O-])c1)C1C(=O)NC(=S)NC1=O"
// result 18

// query Dear colleague, I am looking for the recorded zone of inhibition at 250 µg/mL of the following compound: "O=C(/C=C/c1ccc2ccccc2c1)C1C(=O)NC(=S)NC1=O"
// result 21

// query Would you mind telling me what zone of inhibition at 250 µg/mL value was observed for "O=C(/C=C/c1ccccc1Cl)C1C(=O)NC(=S)NC1=O" ?
// result 16
